# assay.text: chemical genetic growth profiling, strain panel (AID 1159580);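 also: tested at 20 µM; growth read once vehicle control cultures reached saturation at 30 °C; 1 = growth at the plate median or of vehicle wells; lower values mean less growth of the strain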
# assay.setup: S. cerevisiae deletion strains, growth OD, locus YDR388W, active compounds read low
The campaign covered roughly 5,500 compounds. About 2,000 (36%) were called active. Inconclusive results (about 18%) are left out. The list shows a part of the results.
value.type: normalized growth

# compound, value.type, test.result
measured = [
    ("CC(=O)OC1CC(OC(C)=O)C2(C)C(CC(OC(C)=O)C3(C)C2CCC2(C)C(c4ccoc4)OC(=O)C4OC423)C1(C)C (stereo not given)", "normalized growth", 0.988),
    ("CC(=O)O[C@@H]1CC2C(C)(C)[C@@H](O)CC[C@]2(C)C2CC[C@@]3(C)[C@H](c4ccoc4)OC(=O)[C@H]4O[C@]43[C@@]21C (stereo not given in full)", "normalized growth", 1.02),
    ("Cc1oncc1C(=O)Nc1ccc(C(F)(F)F)cc1", "normalized growth", 1),
    ("Clc1ccc(C(c2ccccc2Cl)C(Cl)Cl)cc1 (stereo not given)", "normalized growth", 0.991),
    ("O=C1CCCCC/C=C/CCCCCCCCO1", "normalized growth", 0.99),
    ("COc1c(C)c2c(c(O)c1C/C=C(\\C)CCC(=O)O)C(=O)OC2", "normalized growth", 0.75),
    ("C=NC(C(=O)NC1C(=O)N2C1SC(C)(C)C2C(=O)O)c1ccccc1 (stereo not given)", "normalized growth", 1),
    ("O=c1cccc2n1CC1CC2CN2CCCC[C@@H]12 (stereo not given in full)", "normalized growth", 0.985),
    ("CN(C)C(=O)Oc1ccc[n+](C)c1", "normalized growth", 1.02),
    ("NCC[C@@H](O)C(=O)N[C@@H]1C[C@H](N)[C@@H](O[C@H]2O[C@H](CN)[C@@H](O)[C@H](O)[C@H]2O)[C@H](O)[C@H]1O[C@H]1O[C@H](CO)[C@@H](O)[C@H](N)C1O (stereo not given in full)", "normalized growth", 1.01),
]

Source listed as PubChem BioAssay AID1159580.
